Some compounds, each annotated with its measured MIC.
Tested on: Staph. aureus 209-P
PROCEDURE_DETAILS: Anti-bacterial activity (MIC), agar dilution
Format: cell-based
CONDITION_DETAILS: Staphylococcus aureus, 209P, 18 h, Staph. aureus 209-P; agar dilution, about 10^6 CFU/ml, 18 hours, 37° C.; read-out: MIC

COMPOUND: Nc1nc(/C(=N/OCF)C(=O)N[C@@H]2C(=O)N3C(C(=O)[O-])=C(/C=C/C[n+]4ccc(C(=O)O)cc4)CS[C@H]23)ns1
MIC / µg/mL: 0.4
//
COMPOUND: C[N+](C)(C/C=C/C1=C(C(=O)[O-])N2C(=O)[C@@H](NC(=O)/C(=N\OCF)c3nsc(N)n3)[C@H]2SC1)CC(N)=O
MIC / µg/mL: 0.2
//
COMPOUND: CC(C(N)=O)[N+]1(C/C=C/C2=C(C(=O)[O-])N3C(=O)[C@@H](NC(=O)/C(=N\OCF)c4nsc(N)n4)[C@H]3SC2)CCCC1 (single isomer, unassigned)
MIC / µg/mL: 0.2
//
COMPOUND: NC(=O)N1CC[N+](C/C=C/C2=C(C(=O)[O-])N3C(=O)[C@@H](NC(=O)/C(=N\OCF)c4nsc(N)n4)[C@H]3SC2)(CCO)CC1
MIC / µg/mL: 0.4
//
COMPOUND: CC(=O)NCC[N+](C/C=C/C1=C(C(=O)[O-])N2C(=O)[C@@H](NC(=O)/C(=N\OCF)c3nsc(N)n3)[C@H]2SC1)(CCO)CCO
MIC / µg/mL: 0.4
//
COMPOUND: C[N+]1(C/C=C/C2=C(C(=O)[O-])N3C(=O)[C@@H](NC(=O)/C(=N\OCF)c4nsc(N)n4)[C@H]3SC2)CCN(C=O)CC1
MIC / µg/mL: 0.2
//
COMPOUND: C[N+]1(C/C=C/C2=C(C(=O)[O-])N3C(=O)[C@@H](NC(=O)/C(=N\OCF)c4nsc(N)n4)[C@H]3SC2)CCN(S(=O)(=O)O)CC1
MIC / µg/mL: 0.8
//
COMPOUND: C[N+](C)(C/C=C/C1=C(C(=O)[O-])N2C(=O)[C@@H](NC(=O)/C(=N\OCC#N)c3nsc(N)n3)[C@H]2SC1)[C@@H](CO)C(N)=O
MIC / µg/mL: 0.4
//
COMPOUND: C[N+](C)(C/C=C/C1=C(C(=O)[O-])N2C(=O)[C@@H](NC(=O)/C(=N\OCF)c3nsc(N)n3)[C@H]2SC1)[C@H](CO)C(N)=O
MIC / µg/mL: 0.2
//
COMPOUND: C[N+](C)(C/C=C/C1=C(C(=O)[O-])N2C(=O)[C@@H](NC(=O)/C(=N\OCF)c3nsc(N)n3)[C@H]2SC1)Cc1nnco1
MIC / µg/mL: 0.2
//
COMPOUND: C[N+](C)(C/C=C/C1=C(C(=O)[O-])N2C(=O)[C@@H](NC(=O)/C(=N\OCC#N)c3nsc(N)n3)[C@H]2SC1)Cc1nnco1
MIC / µg/mL: 0.4
//
COMPOUND: C[N+]1(C/C=C/C2=C(C(=O)[O-])N3C(=O)[C@@H](NC(=O)/C(=N\OCF)c4nsc(N)n4)[C@H]3SC2)CCN(S(N)(=O)=O)CC1
MIC / µg/mL: 0.2
//
COMPOUND: Nc1nc(/C(=N/OCF)C(=O)N[C@@H]2C(=O)N3C(C(=O)[O-])=C(/C=C/C[N+]4(CCO)CCN(CCO)CC4)CS[C@H]23)ns1
MIC / µg/mL: 0.4
//
COMPOUND: CNC(=O)CC[N+](C)(C)C/C=C/C1=C(C(=O)[O-])N2C(=O)[C@@H](NC(=O)/C(=N\OCF)c3nsc(N)n3)[C@H]2SC1
MIC / µg/mL: 0.2
//
COMPOUND: NCC[N+]1(C/C=C/C2=C(C(=O)[O-])N3C(=O)[C@@H](NC(=O)/C(=N\OCF)c4nsc(N)n4)[C@H]3SC2)CCCC1
MIC / µg/mL: 0.2
//
COMPOUND: N#CCO/N=C(\C(=O)N[C@@H]1C(=O)N2C(C(=O)[O-])=C(/C=C/C[N+](CCO)(CCO)CCO)CS[C@H]12)c1nsc(N)n1
MIC / µg/mL: 0.2
//
COMPOUND: NC(=O)C[N+]1(C/C=C/C2=C(C(=O)[O-])N3C(=O)[C@@H](NC(=O)/C(=N\OCF)c4nsc(N)n4)[C@H]3SC2)CCOCC1
MIC / µg/mL: 0.4
//
COMPOUND: CC(O)C[N+](C)(C)C/C=C/C1=C(C(=O)[O-])N2C(=O)[C@@H](NC(=O)/C(=N\OCC#N)c3nsc(N)n3)[C@H]2SC1 (some centres unmarked)
MIC / µg/mL: 0.2
//
COMPOUND: Nc1nc(/C(=N/OCF)C(=O)N[C@@H]2C(=O)N3C(C(=O)[O-])=C(/C=C/C[n+]4ccc(C(=O)N(CCO)CCO)cc4)CS[C@H]23)ns1
MIC / µg/mL: 0.8
//
COMPOUND: N#CCO/N=C(\C(=O)N[C@@H]1C(=O)N2C(C(=O)[O-])=C(/C=C/C[n+]3ccc(C(N)=O)cc3)CS[C@H]12)c1nsc(N)n1
MIC / µg/mL: 0.2
//
COMPOUND: CN(C)CCC[N+](C)(C)C/C=C/C1=C(C(=O)[O-])N2C(=O)[C@@H](NC(=O)/C(=N\OCF)c3nsc(N)n3)[C@H]2SC1
MIC / µg/mL: 0.4
//
COMPOUND: C[N+](C)(C/C=C/C1=C(C(=O)[O-])N2C(=O)[C@@H](NC(=O)/C(=N\OCF)c3nsc(N)n3)[C@H]2SC1)[C@@H](CO)C(N)=O
MIC / µg/mL: 0.2
//
COMPOUND: Nc1nc(/C(=N/OC(F)F)C(=O)N[C@@H]2C(=O)N3C(C(=O)[O-])=C(/C=C/C[N+](CCO)(CCO)CCO)CS[C@H]23)ns1
MIC / µg/mL: 0.4
